biological target: recombinant BACE1 protein (Homo sapiens); assay: Biochemical FRET based assay; conditions: recombinant BACE1 1 μg/ml, 120 minutes at room temperature, pH 5.0; read-out: Biochemical FRET based assay pIC50 (converted)
Measured attribute: IC50 (nM)

INSERT INTO assay_data (compound, target_system, censor_symbol, meas_value) VALUES
  ('NC1=N[C@@](c2cccc(NC(=O)c3ncc(Cl)cc3F)c2)(C2CC2)[C@@H](F)OC1', 'recombinant BACE1 protein (Homo sapiens)', '=', 60.3),
  ('CC1(c2cccc(-c3cncc(C#N)c3)c2)N=C(N)COC1C(F)(F)F (single isomer, unassigned) [Compound 204]', 'recombinant BACE1 protein (Homo sapiens)', '=', 363),
  ('C[C@@]1(c2cc(-c3cncnc3)c(F)cc2F)COC2(CC2)C(N)=N1', 'recombinant BACE1 protein (Homo sapiens)', '=', 1100),
  ('N#Cc1ccc(C(=O)Nc2ccc(F)c([C@@]3(C4CC4)N=C(N)CO[C@H]3C(F)(F)F)c2)nc1', 'recombinant BACE1 protein (Homo sapiens)', '=', 44.7),
  ('N#Cc1cncc(-c2cccc([C@@]3(C4CC4)N=C(N)CO[C@@H]3F)c2)c1', 'recombinant BACE1 protein (Homo sapiens)', '=', 1380),
  ('CC1(c2cccc(NC(=O)c3ccncn3)c2)N=C(N)COC1(F)C(F)(F)F (single isomer, unassigned) [Compound 189]', 'recombinant BACE1 protein (Homo sapiens)', '>', 30200),
  ('COc1cnc(C(=O)Nc2ccc(F)c([C@@]3(C)N=C(N)CO[C@@]3(F)C(F)(F)F)c2)cn1', 'recombinant BACE1 protein (Homo sapiens)', '=', 44.7);

###

molecular target: recombinant BACE1 protein (Homo sapiens, UniProt P56817); assay: Biochemical FRET based assay; conditions: recombinant BACE1 1 μg/ml, 120 minutes at room temperature, pH 5.0
Sequence (P56817 46-501): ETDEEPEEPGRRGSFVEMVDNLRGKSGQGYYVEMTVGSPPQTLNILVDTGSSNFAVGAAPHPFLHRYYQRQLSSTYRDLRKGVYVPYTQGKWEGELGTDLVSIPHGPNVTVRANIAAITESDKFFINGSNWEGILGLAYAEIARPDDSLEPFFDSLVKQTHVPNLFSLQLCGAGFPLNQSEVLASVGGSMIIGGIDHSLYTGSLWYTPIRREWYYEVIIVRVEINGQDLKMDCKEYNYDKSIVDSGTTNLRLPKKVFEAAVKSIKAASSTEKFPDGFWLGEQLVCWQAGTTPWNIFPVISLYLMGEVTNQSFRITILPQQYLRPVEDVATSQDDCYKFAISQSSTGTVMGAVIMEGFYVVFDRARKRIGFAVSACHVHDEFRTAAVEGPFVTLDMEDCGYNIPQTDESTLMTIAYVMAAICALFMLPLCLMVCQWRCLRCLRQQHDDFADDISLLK
# label = Satisfied if Biochemical FRET based assay pIC50 >= 5 else Not satisfied

INSERT INTO measurements (molecule, group_label) VALUES
  ('COc1cncc(-c2ccc(F)c(C3(C)COCC(N)=N3)c2)c1 (single isomer, unassigned) [Compound 156]', 'Satisfied'),
  ('C[C@]1(c2cccc(-c3cncnc3)c2)CO[C@@](C)(C(F)(F)F)C(N)=N1 (racemic) [Compound 162]', 'Satisfied'),
  ('C[C@@]1(c2cccc(-c3cncnc3)c2)CO[C@@](C)(C(F)(F)F)C(N)=N1 (racemic) [Compound 161]', 'Not satisfied'),
  ('COc1cc(Cl)ccc1C(=O)Nc1ccc(F)c([C@]2(C)COCC(N)=N2)c1 [Compound 45]', 'Satisfied'),
  ('COc1cncc(-c2cccc([C@@]3(C)CO[C@@H](C)C(N)=N3)c2)c1 (racemic) [Compound 19]', 'Satisfied'),
  ('C[C@]1(c2cc(-c3cncnc3)c(F)cc2F)COCC(N)=N1 [Compound 155]', 'Not satisfied');

###

Biological target: P-gp (Homo sapiens, UniProt P08183)
Construct: expressed in transfected cells; host or cells: LLC-PK1 cells stably transduced with MDR1 (LLC-MDR1)
Sequence (P08183 whole entry): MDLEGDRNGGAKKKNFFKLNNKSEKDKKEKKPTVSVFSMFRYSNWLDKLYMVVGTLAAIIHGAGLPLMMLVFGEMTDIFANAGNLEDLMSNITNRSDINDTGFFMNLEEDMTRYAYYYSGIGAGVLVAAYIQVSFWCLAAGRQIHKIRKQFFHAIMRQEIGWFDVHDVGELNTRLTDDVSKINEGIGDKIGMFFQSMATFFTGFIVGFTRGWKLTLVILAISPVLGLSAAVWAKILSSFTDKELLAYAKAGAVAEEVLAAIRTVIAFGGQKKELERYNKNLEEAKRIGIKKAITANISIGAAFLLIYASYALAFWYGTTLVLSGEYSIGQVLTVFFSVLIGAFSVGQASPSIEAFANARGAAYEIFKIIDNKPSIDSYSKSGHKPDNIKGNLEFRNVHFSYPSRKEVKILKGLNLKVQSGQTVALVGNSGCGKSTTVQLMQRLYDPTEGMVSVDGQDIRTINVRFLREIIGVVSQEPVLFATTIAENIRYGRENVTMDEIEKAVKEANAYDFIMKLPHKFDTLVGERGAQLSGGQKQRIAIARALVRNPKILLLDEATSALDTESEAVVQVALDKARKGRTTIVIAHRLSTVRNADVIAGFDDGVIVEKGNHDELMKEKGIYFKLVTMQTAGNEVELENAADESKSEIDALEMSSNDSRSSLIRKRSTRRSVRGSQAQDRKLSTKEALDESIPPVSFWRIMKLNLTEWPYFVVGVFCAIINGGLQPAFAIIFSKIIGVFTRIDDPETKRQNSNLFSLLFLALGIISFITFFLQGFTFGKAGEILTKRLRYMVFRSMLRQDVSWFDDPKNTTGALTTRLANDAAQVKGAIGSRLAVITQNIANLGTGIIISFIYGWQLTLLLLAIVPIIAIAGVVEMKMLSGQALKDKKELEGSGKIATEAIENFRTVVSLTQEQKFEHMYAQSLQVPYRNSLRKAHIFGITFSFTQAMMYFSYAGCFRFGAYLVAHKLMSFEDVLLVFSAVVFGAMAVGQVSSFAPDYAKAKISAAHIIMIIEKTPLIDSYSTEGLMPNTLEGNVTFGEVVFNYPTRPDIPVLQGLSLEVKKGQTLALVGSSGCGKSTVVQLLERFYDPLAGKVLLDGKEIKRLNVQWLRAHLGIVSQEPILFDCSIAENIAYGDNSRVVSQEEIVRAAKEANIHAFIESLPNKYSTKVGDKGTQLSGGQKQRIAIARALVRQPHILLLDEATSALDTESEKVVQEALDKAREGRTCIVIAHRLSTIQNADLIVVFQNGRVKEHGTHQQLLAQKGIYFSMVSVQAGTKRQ
Test: Transepithelial transport of test compounds through LLC-MDR1 monolayers
Assay type: in vitro ADME
Conditions: pig, LLC-PK1; LLC-MDR1 monolayers, ratio of B to A and A to B permeation rates; read-out: BA/AB
Protocol: Brief Assay Description for the Measurement of Transepithelial Transport of Test Compounds Through LLC-MDR1 Monolayers […] The integrity of the cellular monolayer was assessed in each incubation well through the inclusion of the fluorescent, low permeability marker compound, Fluorescein. […]
Measured attribute: efflux ratio at 120 min, 1 μM

INSERT INTO assay_data (compound, measured_attribute, meas_value) VALUES
  ('COc1cncc(-c2cccc(C3(C)N=C(N)COC3(F)C(F)(F)F)c2)c1 (single isomer, unassigned) [Compound 118]', 'efflux ratio at 120 min, 1 μM', 1.3),
  ('COc1cncc(-c2cccc(C3(C)N=C(N)COC3F)c2)c1 (stereo not shown) [Compound 100]', 'efflux ratio at 120 min, 1 μM', 3.6),
  ('CC1(c2cc(-c3cncnc3)ccc2F)N=C(N)COC1C(F)(F)F (single isomer, unassigned) [Compound 106]', 'efflux ratio at 120 min, 1 μM', 1.1),
  ('C[C@@]1(c2cc(-c3cncnc3)c(F)cc2F)N=C(N)CO[C@H]1F (single isomer, unassigned) [Compound 82]', 'efflux ratio at 120 min, 1 μM', 2.3),
  ('COc1cncc(-c2cccc(C3(C)N=C(N)COC3F)c2)c1 (single isomer, unassigned) [Compound 93]', 'efflux ratio at 120 min, 1 μM', 4.6),
  ('COc1cncc(-c2cccc(C3(C)COCC(N)=N3)c2)c1 (racemic) [Compound 4]', 'efflux ratio at 120 min, 1 μM', 25.9),
  ('C[C@]1(c2cccc(NC(=O)c3ccc(Cl)cn3)c2)N=C(N)CO[C@@H]1F (single isomer, unassigned) [Compound 86]', 'efflux ratio at 120 min, 1 μM', 1.6);
